Data origin, for the record: PubChem BioAssay (NCI)

Reported values of TGI for individual entries
- Tested on: SF-295 CNS
- assay-comment: NCI tumour cell line growth inhibition, 48 h

[[record]]
compound = "CO/C(N)=C(\\C#N)N=Cc1ccc2ccccc2c1"
system = "SF-295 CNS"
readout_label = "TGI"
value_reported = "> 100 µM"


Exercise: Tell me the measured TGI of Cc1nc(N)nc(N)c1CCCCc1ccc(N)cc1 , please.
Key: 14.2 µM

Exercise: Query: TGI; subject: COc1cc[c]([Sn]([c]2ccc(OC)cc2)([c]2ccc(OC)cc2)[c]2ccc(OC)cc2)cc1
Key: > 100 µM

Exercise: Field request: TGI | item: Clc1ccc(Nc2nnc(CNc3ccc(-c4nnc(Nc5ccc(Cl)cc5)s4)cc3)s2)cc1
Key: 84.3 µM

---

- System: MDA-MB-231 breast
- assay-comment: NCI tumour cell line growth inhibition, 48 h
Catalogue of TGI values

[[record]]
compound = "CN(C)CCN(C)P12(Oc3ccccc3O1)Oc1c(Cl)c(Cl)c(Cl)c(Cl)c1O2"
readout_label = "TGI"
value_reported = "> 100 µM"


Exercise: Which TGI reading was recorded for the compound CSc1ncnc2c1cnn2Cc1cn(COCCO)nn1 ?
Key: > 100 µM

Exercise: # TGI lookup, item C[N+](C)(CCCCCC[N+](C)(C)CCCN1C(=O)c2cccc3cccc(c23)C1=O)CCCN1C(=O)c2cccc3cccc(c23)C1=O
Key: > 100 µM

Exercise: What value of measured TGI is listed for C[C@@H](CC(O)C(O)C(C)(C)O)C1CCC23CC12CCC1[C@@]2(C)CCC(O)C(C)(C)C2CC(OC2OC(CO)C(O)C(O)C2O)[C@]13C (stereo not given in full) ?
Key: > 10 µM

Exercise: // TGI lookup, key: O=C(O)C1=C/C(=C(/c2ccccc2)c2cc(C(=O)O)c(O)c3ccccc23)c2ccccc2C1=O
Key: > 100 µM

---

- Test system: NCI-H460 lung
- assay-comment: NCI tumour cell line growth inhibition, 48 h
readout-label: TGI

[[record]]
compound = "O=C1N/C(=N\\N=C\\c2ccccc2)C(c2ccccc2)O1 (stereo not given)"
readout_label = "TGI"
value_reported = "> 100 µM"

[[record]]
compound = "O=NN1C(c2ccccc2)CNC(=O)CC1c1ccccc1 (stereo not given)"
readout_label = "TGI"
value_reported = "> 100 µM"

[[record]]
compound = "CC1CC2C3CCC4=CC(=O)C=CC4(C)C3(F)C(O)CC2(C)C1(O)C(=O)COP(=O)(O)O (stereo not given)"
readout_label = "TGI"
value_reported = "> 500 µM"

[[record]]
compound = "Cc1ccc(CNc2ccc(Br)cc2)cc1"
readout_label = "TGI"
value_reported = "> 100 µM"

[[record]]
compound = "NS(=O)(=O)c1ccc(Nc2cc(-c3ccc(O)c(F)c3)[nH]n2)cc1"
readout_label = "TGI"
value_reported = "> 25 µM"

[[record]]
compound = "CC(=O)C1CCN(c2ccccc2)C1 (stereo not given)"
readout_label = "TGI"
value_reported = "> 100 µM"

[[record]]
compound = "COC(=O)C1CC2C=CC=CC(=O)C2(C)C1 (stereo not given)"
readout_label = "TGI"
value_reported = "> 100 µM"

[[record]]
compound = "O=S(O)CCCCCSSc1ccccc1"
readout_label = "TGI"
value_reported = "> 100 µM"


Exercise: Could you tell me which TGI is on file for CCNC(=O)C(C)C1CCC2(C)C=CC(=O)C(C)=C2C1O (stereo not given) ?
Key: > 100 µM

Exercise: Which TGI reading was recorded for the compound CC(C)Oc1c(C2(c3ccccc3)SCCCS2)c(=O)c1=O ?
Key: > 100 µM
